Target: HRgpA-6H (Porphyromonas gingivalis) (UniProt P28784)
Experiment: ELISA, FASEBA Fab supernatant on coated HRgpA-6H
The reader will find reported OD450 nm values listed item by item below.
quantity: OD450 nm

[[record]]
binder = "KB001 mouse Fab variant VL H94Y (Fab, V domains shown) VH: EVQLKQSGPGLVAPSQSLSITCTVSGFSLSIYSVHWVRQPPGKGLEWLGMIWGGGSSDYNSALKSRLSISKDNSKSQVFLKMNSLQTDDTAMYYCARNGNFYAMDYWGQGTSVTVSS VL: QIVLTQSPAIMSASLGERVTMTCTASSSVSSSFLHWYQQKPGSSPQLWIYSTSNLASGVPARFSGSGSGTSYSLTISSMEAEDAATYYCHQYHYSPYIYTFGGGTKLEIK"
value = 0.865

[[record]]
binder = "KB001 mouse Fab variant VL S57K (Fab, V domains shown) VH: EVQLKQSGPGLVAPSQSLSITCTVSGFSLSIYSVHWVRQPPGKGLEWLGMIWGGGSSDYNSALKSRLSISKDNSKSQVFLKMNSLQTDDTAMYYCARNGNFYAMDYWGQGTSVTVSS VL: QIVLTQSPAIMSASLGERVTMTCTASSSVSSSFLHWYQQKPGSSPQLWIYSTSNLAKGVPARFSGSGSGTSYSLTISSMEAEDAATYYCHQYHHSPYIYTFGGGTKLEIK"
value = 0.712

[[record]]
binder = "KB001 mouse Fab variant VL H93N (Fab, V domains shown) VH: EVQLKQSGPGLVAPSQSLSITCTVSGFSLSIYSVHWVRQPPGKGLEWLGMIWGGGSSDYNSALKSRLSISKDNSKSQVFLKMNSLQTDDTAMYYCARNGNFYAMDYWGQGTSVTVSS VL: QIVLTQSPAIMSASLGERVTMTCTASSSVSSSFLHWYQQKPGSSPQLWIYSTSNLASGVPARFSGSGSGTSYSLTISSMEAEDAATYYCHQYNHSPYIYTFGGGTKLEIK"
value = 0.857

[[record]]
binder = "KB001 mouse Fab variant VL S95Y (Fab, V domains shown) VH: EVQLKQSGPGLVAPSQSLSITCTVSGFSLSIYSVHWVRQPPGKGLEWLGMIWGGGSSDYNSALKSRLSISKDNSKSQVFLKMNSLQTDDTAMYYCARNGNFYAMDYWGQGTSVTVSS VL: QIVLTQSPAIMSASLGERVTMTCTASSSVSSSFLHWYQQKPGSSPQLWIYSTSNLASGVPARFSGSGSGTSYSLTISSMEAEDAATYYCHQYHHYPYIYTFGGGTKLEIK"
value = 0.827

[[record]]
binder = "KB001 mouse Fab variant VL S57N (Fab, V domains shown) VH: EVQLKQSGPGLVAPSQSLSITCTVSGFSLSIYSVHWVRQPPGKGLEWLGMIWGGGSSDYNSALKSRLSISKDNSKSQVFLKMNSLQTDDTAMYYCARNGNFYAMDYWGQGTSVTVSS VL: QIVLTQSPAIMSASLGERVTMTCTASSSVSSSFLHWYQQKPGSSPQLWIYSTSNLANGVPARFSGSGSGTSYSLTISSMEAEDAATYYCHQYHHSPYIYTFGGGTKLEIK"
value = 0.813

